Biological target: WT Nav1.5-α subunits (Homo sapiens)
Construct: expressed in transfected cells; host or cells: HEK293 (transient transfection)
Sequence (Q14524 whole entry): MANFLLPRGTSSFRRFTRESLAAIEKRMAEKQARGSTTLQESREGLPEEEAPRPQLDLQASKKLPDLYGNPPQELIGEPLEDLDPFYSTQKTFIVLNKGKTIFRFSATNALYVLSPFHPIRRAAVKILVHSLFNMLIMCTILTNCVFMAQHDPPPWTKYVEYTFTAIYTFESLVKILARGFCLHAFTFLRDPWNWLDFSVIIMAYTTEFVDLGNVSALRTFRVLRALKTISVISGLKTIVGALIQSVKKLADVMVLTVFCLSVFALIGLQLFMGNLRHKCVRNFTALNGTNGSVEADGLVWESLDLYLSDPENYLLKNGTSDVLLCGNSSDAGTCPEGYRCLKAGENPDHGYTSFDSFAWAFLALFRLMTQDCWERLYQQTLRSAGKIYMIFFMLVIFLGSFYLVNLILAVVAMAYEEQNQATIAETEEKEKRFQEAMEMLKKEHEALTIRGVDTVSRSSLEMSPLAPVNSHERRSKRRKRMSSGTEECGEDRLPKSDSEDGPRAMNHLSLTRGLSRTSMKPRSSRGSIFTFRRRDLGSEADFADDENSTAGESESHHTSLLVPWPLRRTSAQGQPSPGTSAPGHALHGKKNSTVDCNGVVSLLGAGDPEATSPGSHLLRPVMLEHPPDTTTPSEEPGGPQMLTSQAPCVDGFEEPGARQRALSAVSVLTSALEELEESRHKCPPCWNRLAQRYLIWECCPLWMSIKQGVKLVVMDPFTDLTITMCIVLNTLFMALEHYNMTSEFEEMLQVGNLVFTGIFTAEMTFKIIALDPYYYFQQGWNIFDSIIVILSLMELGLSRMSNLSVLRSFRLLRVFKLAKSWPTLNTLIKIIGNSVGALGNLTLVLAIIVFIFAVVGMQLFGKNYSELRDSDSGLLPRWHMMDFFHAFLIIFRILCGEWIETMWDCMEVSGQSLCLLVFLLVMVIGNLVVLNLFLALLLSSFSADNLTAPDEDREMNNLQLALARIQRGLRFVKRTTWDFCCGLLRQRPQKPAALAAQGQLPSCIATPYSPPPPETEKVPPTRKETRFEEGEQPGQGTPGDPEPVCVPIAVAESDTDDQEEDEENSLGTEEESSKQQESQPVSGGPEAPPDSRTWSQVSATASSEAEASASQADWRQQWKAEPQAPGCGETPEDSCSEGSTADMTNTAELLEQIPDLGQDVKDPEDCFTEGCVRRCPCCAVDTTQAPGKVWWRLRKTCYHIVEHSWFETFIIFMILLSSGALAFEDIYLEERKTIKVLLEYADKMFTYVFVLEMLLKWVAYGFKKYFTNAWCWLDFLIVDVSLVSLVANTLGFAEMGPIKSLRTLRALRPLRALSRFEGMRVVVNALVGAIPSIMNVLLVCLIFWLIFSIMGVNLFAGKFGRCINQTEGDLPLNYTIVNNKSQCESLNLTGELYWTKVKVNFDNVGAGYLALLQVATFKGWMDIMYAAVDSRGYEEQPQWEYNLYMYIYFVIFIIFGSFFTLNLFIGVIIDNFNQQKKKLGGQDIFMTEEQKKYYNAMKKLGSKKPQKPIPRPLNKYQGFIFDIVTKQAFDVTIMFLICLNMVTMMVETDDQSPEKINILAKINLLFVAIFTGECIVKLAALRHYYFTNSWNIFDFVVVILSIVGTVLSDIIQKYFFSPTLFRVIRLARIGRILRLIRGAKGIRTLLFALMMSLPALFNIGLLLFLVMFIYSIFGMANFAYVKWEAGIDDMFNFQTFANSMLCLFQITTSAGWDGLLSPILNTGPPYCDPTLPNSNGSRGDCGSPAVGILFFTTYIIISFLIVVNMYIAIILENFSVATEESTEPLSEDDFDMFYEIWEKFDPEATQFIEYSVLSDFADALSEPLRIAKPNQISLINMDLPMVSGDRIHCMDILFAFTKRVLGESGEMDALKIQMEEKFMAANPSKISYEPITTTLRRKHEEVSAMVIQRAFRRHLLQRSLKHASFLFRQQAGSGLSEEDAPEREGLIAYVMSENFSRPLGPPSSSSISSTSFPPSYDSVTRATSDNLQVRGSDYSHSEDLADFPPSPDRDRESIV
Experiment: Whole-cell patch clamp, use-dependence (slow inactivation) protocol at 6 Hz in transiently transfected HEK293 cells
Type: cell-based
Conditions: Hill curve slope
Parameter threshold = 0.5. Response is t when UDI Block Slope meets or exceeds it, else f.

1. C=CCNS(=O)(=O)c1ccc2c(c1)=NC(=O)N=2 [ZINC39699427] = t
2. Cc1cc(F)ccc1NS(=O)(=O)c1ccc2c(c1)=NC(=O)N=2 [ZINC64470745] = f
3. COc1cccc(NS(=O)(=O)c2ccc3c(c2)=NC(=O)N=3)c1 [ZINC64470729] = f
4. O=C1N=c2ccc(C(=O)NCc3ccco3)cc2=NC1=O [ZINC38767171] = t

Query compound follows.
query: Does the compound CCc1ccccc1NS(=O)(=O)c1ccc2c(c1)=NC(=O)N=2 [ZINC64470737] have recorded UDI Block Slope that is 0.5 or more?
result: t
